Documented PBM binding z-score across a set of sequences
Tested on: PPARg:RXRa IVT, anti-PPARg (NR concentration 270 nM, RXRa partner concentration 90 nM)
Experiment: PBM binding z-score (relative to random genomic background probes); higher = stronger binding; sequences stand for … in GC…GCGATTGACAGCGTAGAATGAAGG
Response field accepts a number only; no unit should be typed.

>>> quantitative_result("TCTTGTAGATCAACACGAGGTTAAGAAAGATCGA")
1.07
>>> quantitative_result("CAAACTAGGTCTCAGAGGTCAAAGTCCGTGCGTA")
5.54
>>> quantitative_result("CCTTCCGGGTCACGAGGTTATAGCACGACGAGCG")
6.43
>>> quantitative_result("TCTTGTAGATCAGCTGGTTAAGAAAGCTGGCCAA")
-0.0157

### Prompt Reported PBM binding z-score, sequence GCTATTAGTTGAAAGGTCAACCGAATGATTCTCG : ____
### Response 3.85

### Prompt Item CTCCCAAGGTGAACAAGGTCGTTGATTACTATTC has what recorded PBM binding z-score?
### Response 2.07

### Prompt Quick one: PBM binding z-score of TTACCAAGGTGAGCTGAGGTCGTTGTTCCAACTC ?
### Response 2.01

### Prompt I am curious: what PBM binding z-score value has been reported for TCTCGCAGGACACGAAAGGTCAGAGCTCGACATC ?
### Response 1.4

### Prompt Please look up its PBM binding z-score: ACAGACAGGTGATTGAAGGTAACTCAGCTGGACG
### Response 0.403

### Prompt If you can, please state the reported PBM binding z-score value of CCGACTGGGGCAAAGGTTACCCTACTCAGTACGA .
### Response 5.45

### Prompt Fill in the blank: the reported PBM binding z-score of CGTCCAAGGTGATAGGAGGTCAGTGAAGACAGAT is ____.
### Response 2.78

### Prompt State the recorded PBM binding z-score for this entry: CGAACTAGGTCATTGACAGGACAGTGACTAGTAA
### Response 8.27
